systemName: UniProt Q9A091
Sequence (Q9A091 entry or part of it): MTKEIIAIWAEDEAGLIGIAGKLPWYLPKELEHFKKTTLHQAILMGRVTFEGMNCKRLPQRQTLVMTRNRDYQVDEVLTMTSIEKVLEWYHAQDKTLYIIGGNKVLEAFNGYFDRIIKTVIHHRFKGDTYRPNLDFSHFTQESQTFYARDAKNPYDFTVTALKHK
protocolNotes: biochemical
Format: biochemical
statedConditions: S. pyogenes DHFR; average of at least three measurements; read-out: IC50 (nM) Sp
observedProperty: IC50
Please provide the amount together with its unit, number first.

// lookup IC50 | system=UniProt Q9A091 | key= COc1cc(-c2ccc(C)cc2)cc(C(C)C#Cc2c(C)nc(N)nc2N)c1 (racemic) [Compound 2]
350 nM

Same thing, different molecule: CCc1nc(N)nc(N)c1C#CCc1cccc(-c2ccccc2)c1 [Compound 8]
26 nM

Same thing, different molecule: CCc1nc(N)nc(N)c1C#CCc1cc(OC)cc(-c2ccccc2)c1 [Compound 9]
52 nM

Taken from paper PMC3274548.
